- assay.info: qHTS to identify inhibitors of the type 1 interferon - major histocompatibility complex class I in skeletal muscle: primary screen against the NCATS LOPAC collection (AID 1347405);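 also: human myoblasts with HiBiT tag on endogenous HLA-B stimulated by IFN-beta; lytic HiBiT luminescence reporting HLA-B protein level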
- test.parameters: iHSKM muscle cells, IFN-b-induced MHC-I HiBiT luminescence, 24 h; series mostly up to 45.9 µM
Inconclusive results are not listed. Active and inactive are the calls of the source. Calls follow the shape of the dose curve; as a rule, active = well fitted inhibition curve with a large enough effect; inconclusive = small, poorly fitted or top-dose-only effect; inactive = flat fitted curve, though single readings scatter.
# valid calls are active, inactive; nothing else

Record excerpt, results attached:
record.smiles	label.value
O=C1NC(c2cccc([N+](=O)[O-])c2)=CCN1c1ccccc1O	inactive
Cc1nn(-c2ccccc2)c(C)c1/C=N/N1CCN(Cc2ccccc2)CC1	inactive
N[C@@H](Cn1ccc(=O)c(O)c1)C(=O)O	inactive
CC(C)N(CCC(=O)c1ccc2ccccc2c1)Cc1ccccc1	active
Brc1ccc([C@H]2CN3CCSC3=N2)cc1	inactive

Per the records of this test, what outcome belongs to CCN(CC)CCNC(=O)c1ccc(NS(C)(=O)=O)cc1 ?
inactive

Per the records of this test, what outcome belongs to COC(=O)C1=CO[C@@H](O)[C@@H]2C(CO)=CC[C@H]12 ?
inactive

Per the records of this test, what outcome belongs to C[N+](C)(C)CCO ?
inactive

Value source: PubChem BioAssay (NCATS)
